Can you tell me IC50 for the items I'm about to list?
Assayed System: Cholecystokinin receptor type A (Rattus norvegicus)
Sequence (P30551 whole entry): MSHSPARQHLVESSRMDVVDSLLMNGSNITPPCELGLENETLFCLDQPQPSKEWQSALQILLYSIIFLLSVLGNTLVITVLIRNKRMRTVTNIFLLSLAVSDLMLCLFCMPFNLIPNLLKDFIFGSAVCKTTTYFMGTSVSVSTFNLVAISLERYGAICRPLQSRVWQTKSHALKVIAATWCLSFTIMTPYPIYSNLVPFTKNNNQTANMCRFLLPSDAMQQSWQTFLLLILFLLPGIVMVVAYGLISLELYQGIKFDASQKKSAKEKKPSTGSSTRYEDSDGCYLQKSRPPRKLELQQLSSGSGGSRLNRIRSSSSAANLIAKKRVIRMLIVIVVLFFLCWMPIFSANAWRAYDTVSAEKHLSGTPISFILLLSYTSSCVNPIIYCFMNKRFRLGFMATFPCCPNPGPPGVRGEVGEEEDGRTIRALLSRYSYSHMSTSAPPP
Answers are plain numbers, in nM.

{"Molecule": "Cc1cccc(NC(=O)N[C@@H]2N=C(c3ccccc3)c3ccccc3N(C)C2=O)c1", "Readout Units": "nM", "Observed Measurement": 736}
{"Molecule": "Cc1cccc(NC(=O)NC2N=C(C3CCCC3)c3ccccc3N(C)C2=O)c1 (stereo not drawn)", "Readout Units": "nM", "Observed Measurement": 27.1}

Could you now consider this next molecule?
Using the record for Cc1cccc(NC(=O)NC2N=C(C3CCC3)c3ccccc3N(C)C2=O)c1 (stereo not drawn) , report its IC50.
402
